Each recorded value in this set is attributed to patent US20120010075A1.

METRIC NAME: melting point

Examples from the recorded data:
- Cc1ccc(C(=O)N/N=C/c2cc(C(F)(F)F)cc(Cl)c2O)cc1: 269 to 271 °C
- O=C(N/N=C/c1c(O)cccc1Cl)c1cccc(F)c1: 257 to 259 °C
- Cc1cccc(C(=O)N/N=C/c2ccc(Cl)c(Cl)c2O)c1: 212 to 214 °C
- C/C(=N\NC(=O)c1ccc(Cl)cc1)c1cc(C)ccc1O: 203 to 210 °C

Request: Please look up its melting point: COc1ccc(/C(C)=N/NC(=O)c2ccc(Cl)cc2)c(O)c1
Response: 227 to 229 °C

Request: Data request, read-out melting point, for C/C(=N\NC(=O)c1cccc(C)c1)c1cc(C(F)(F)F)ccc1O
Response: 235 to 238 °C

Request: Quick one: melting point of C/C(=N\NC(=O)c1ccccc1Br)c1cc(F)cc(F)c1O ?
Response: 190 to 195 °C

Request: So what's the measured melting point for this one? C/C(=N\NC(=O)c1ccc(Br)cc1)c1ccc(Cl)cc1O
Response: 258 to 259 °C

Request: melting point for COc1cc(O)c(/C(C)=N/NC(=O)c2cccc(C)c2)c(OC)c1 ?
Response: 207 to 209 °C

###

METRIC NAME: melting point

Example entries begin here.
• O=C(N/N=C/c1cc(Cl)ccc1O)c1ccccc1C(F)(F)F = 154 to 164 °C
• N#Cc1cccc(C(=O)N/N=C/c2cc(Cl)cc(Cl)c2O)c1 = 252 to 271 °C

API: the following record is the query input.
Request: Can you share its melting point? I mean this compound: COc1ccc(C(=O)N/N=C(\C)c2ccc(Cl)cc2O)cc1
Response: 262 to 263 °C

###

# Test system: Leptosphaeria nodorum (LEPTNO)
# ASSAY INFO: In vitro fungitoxicity of hydrazones with and without copper towards Leptosphaeria nodorum (Example 26)
# Type: cell-based
# STATED CONDITIONS: copper-plus medium (CuCl2 10 μM); test compound Concn. 0.05 μg/mL; 72 h at 25° C.
Measured LEPTNO % Inhn. Plus Copper Observed, listed per entry for reference.
Write the value in % as a bare number.

Request: What value of LEPTNO % Inhn. Plus Copper Observed on Leptosphaeria nodorum (LEPTNO) does COc1ccc(/C(C)=N/NC(=O)c2ccc(C(F)(F)F)cc2)c(O)c1 have?
Response: 97.7

Request: Missing value: LEPTNO % Inhn. Plus Copper Observed, Leptosphaeria nodorum (LEPTNO), entry C/C(=N\NC(=O)c1ccc(C(F)(F)F)cc1)c1cccc(Cl)c1O . Fill in?
Response: 98.0

Request: Requested read-out LEPTNO % Inhn. Plus Copper Observed, target or system Leptosphaeria nodorum (LEPTNO), entry Cc1ccc(C(=O)N/N=C/c2cc(C(F)(F)F)cc(Cl)c2O)c(O)c1
Response: 97.8

Request: Find the measured LEPTNO % Inhn. Plus Copper Observed: item C/C(=N\NC(=O)c1ccccc1)c1cc(Br)cc(Br)c1O , target or system Leptosphaeria nodorum (LEPTNO).
Response: 98.0

Request: What is its LEPTNO % Inhn. Plus Copper Observed for Leptosphaeria nodorum (LEPTNO)? Entry: COc1cccc(/C(C)=N/NC(=O)c2ccccc2C)c1O
Response: 97.2

###

As shown below, each of these compounds has a reported melting point value.

Solved entries:
- C/C(=N\NC(=O)c1cc(Cl)ccc1O)c1cc(Cl)cc(Cl)c1O: 322 to 325 °C
- Cc1cccc(C(=O)N/N=C/c2cc(C(F)(F)F)ccc2O)c1: 192 to 194 °C
- O=C(N/N=C/c1cc(C(F)(F)F)cc(C(F)(F)F)c1O)c1ccccc1: 232 to 234 °C
- O=C(N/N=C/c1c(C(F)(F)F)ccc(Cl)c1O)c1ccc([N+](=O)[O-])cc1: 305 to 307 °C

Turning now to a further record.
Request: May I ask what melting point has been recorded for Cc1cccc(C(=O)N/N=C/c2c(C(F)(F)F)ccc(Cl)c2O)c1 ?
Response: 219 to 221 °C

###

# Tested on: Leptosphaeria nodorum (LEPTNO)
# ASSAY INFO: In vitro fungitoxicity of hydrazones with and without copper towards Leptosphaeria nodorum (Example 26)
# Assay type: cell-based
# STATED CONDITIONS: Parastagonospora nodorum, 72 h, compound 0.05 μg/mL, copper-minus medium, 72 h at 25° C.; read-out: LEPTNO % Inhn. Minus Copper Observed
Please use Y whenever inhibition of growth at 0.05 µg/mL is not below 2%, and N whenever it is.

Consider the worked cases shown below.
- O=C(N/N=C/c1cc(Cl)cc(Br)c1O)c1ccccc1F [Example 169]: Y
- COc1ccccc1C(=O)N/N=C(\C)c1cc(Cl)cc(Cl)c1O [Example 141]: N
- C/C(=N\NC(=O)c1ccccc1[N+](=O)[O-])c1ccccc1O [Example 127]: N
- O=C(N/N=C/c1cc(Cl)cc(Cl)c1O)c1cccc(Cl)c1 [Example 70]: Y
- O=C(N/N=C/c1cc(Br)ccc1O)c1ccccc1Oc1ccccc1 [Example 19]: Y
- Cc1cc(O)c(/C=N/NC(=O)c2ccccc2)cc1Cl [Example 239]: N
- Cc1cccc(C(=O)N/N=C/c2cc(Cl)cc(Cl)c2O)c1 [Example 95]: Y
- COc1cccc(C(=O)N/N=C(\C)c2ccccc2O)c1 [Example 53]: N
- O=C(N/N=C/c1cc(Cl)ccc1O)c1ccc(Cl)cc1 [Example 172]: Y
- Cc1ccc(C(=O)N/N=C/c2ccccc2O)c(Br)c1 [Example 227]: Y

Request: Check this compound for inhibition of growth at 0.05 µg/mL at or above 2%: Cc1ccc(C(=O)N/N=C/c2cc(Cl)cc(Cl)c2O)cc1 [Example 72]
Response: Y

###

# System: Leptosphaeria nodorum (LEPTNO)
# ASSAY INFO: Fungitoxicity of copper-hydrazone mixtures of different ratios towards Leptosphaeria nodorum (Example 35, Table 11)
# Assay type: cell-based
# STATED CONDITIONS: mixture with hydrazone compound 16, Hydrazone:Cu ratio 1 to 1; read-out: CuCl2 EC50 (amount of CuCl2 in mixture at EC50)
METRIC NAME: EC50 (nM)
Write down the numeric answer in nM and omit the unit.

Request: Param item = O.O.[Cl][Cu][Cl] [CuCl2, CuCl2.2H2O, reference compound] ; retrieve measured EC50.
Response: 72

###

Recorded inhibition of growth at 0.039 µg/mL for the following compounds
# System: Phytophthora capsici
# ASSAY INFO: In vitro fungitoxicity of hydrazones with and without copper towards Phytophthora capsici (Example 28, Table 3)
# Type: cell-based
# STATED CONDITIONS: Phytophthora capsici; 0.039 μg/mL; copper-minus AS medium; 48 h; read-out: % Inhn Minus copper Observed
Quick note: give the figure in %, leave out the unit.

Solved cases below.
• Cc1ccc(/C=N/NC(=O)c2ccc(C(C)C)cc2)c(O)c1 [Example 14] = 0
• O=C(N/N=C/c1cc(Cl)cc(Cl)c1O)c1ccc(OC(F)(F)F)cc1 [Example 100] = 10
• O=C(Cc1ccccc1)N/N=C/c1cc(Br)cc(Br)c1O [Example 124] = 25

Request: Form: Entry = C=CCc1cccc(/C=N/NC(=O)c2ccccc2)c1O [Example 143] | System = Phytophthora capsici | inhibition of growth at 0.039 µg/mL = ____
Response: 6

Request: Recorded inhibition of growth at 0.039 µg/mL for O=C(Cc1ccccc1)N/N=C/c1cc(Cl)cc(Br)c1O [Example 210] with Phytophthora capsici, please?
Response: 36.6

Request: // map O=C(N/N=C/c1cc(Cl)cc(Cl)c1O)c1ccccc1Br [Example 84] to recorded inhibition of growth at 0.039 µg/mL (system: Phytophthora capsici)
Response: 47.5

Request: What is its inhibition of growth at 0.039 µg/mL for Phytophthora capsici? Entry: Cc1cc(C)cc(C(=O)N/N=C/c2cc(Cl)cc(Cl)c2O)c1 [Example 102]
Response: 15.7

Request: Record lookup: for Phytophthora capsici, what inhibition of growth at 0.039 µg/mL belongs to CNc1ccccc1C(=O)N/N=C/c1ccccc1O [Example 3] ?
Response: 0

Request: Look up inhibition of growth at 0.039 µg/mL with Phytophthora capsici for this compound: O=C(N/N=C/c1cc(Cl)cc(Cl)c1O)c1cc(Cl)ccc1Cl [Example 83]
Response: 27.9

Request: Value wanted: inhibition of growth at 0.039 µg/mL (Phytophthora capsici) of entry O=C(N/N=C/c1ccccc1O)c1ccccc1O [Example 1]
Response: 9.7

Request: # value lookup — system Phytophthora capsici, readout inhibition of growth at 0.039 µg/mL, item O=C(Cc1ccccc1)N/N=C/c1cc(Cl)cc(Cl)c1O [Example 125]
Response: 66.6

Request: Provide the documented inhibition of growth at 0.039 µg/mL with Phytophthora capsici as the system for O=C(N/N=C/c1cc(Cl)cc(Cl)c1O)c1ccccc1[N+](=O)[O-] [Example 96]
Response: 55.2

Request: Form field - read-out: inhibition of growth at 0.039 µg/mL; system: Phytophthora capsici; submitted item: COc1ccc(O)c(/C=N/NC(=O)c2ccc(Cl)cc2)c1 [Example 207]
Response: 0

Request: Give inhibition of growth at 0.039 µg/mL (Phytophthora capsici) of the following compound: CCOc1ccc(C(=O)N/N=C/c2ccccc2O)cc1 [Example 21]
Response: 0
